- SUBJECT_OF_TEST: mAb 6C6D7
- EXPERIMENT_SUMMARY: SPR binding of K-tritrpticin (immobilised) to mAb 6C6D7
- Parameters: species or system BALB/c mice
- STUDY_CONDITIONS: 20 °C, KD = kdiss/kass, read-out: KD (dissociation constant)
READOUT_LABEL: Kd (nM)
# output: bare number, implied unit nM

### Prompt Provide Kd, tested on mAb 6C6D7, for K-tritrpticin: tritrpticin with lysine introduced at the N terminus (KVRRFPWWWPFLRR) .
### Response 303
